- System: HCT-116 colon
- procedure.text: NCI tumour cell line growth inhibition, 48 h
value.type: TGI (µM)
Give a bare numeral; the unit µM is implied.

Query: Quick check: TGI of CCCCCCCCCCCCCCCC[N+](C)(C)CCl ?
Result: 4.98

Query: Quick check: TGI of Cc1cc(Br)c(O)c(-c2cscn2)c1 ?
Result: 25.2

Query: Quick check: TGI of COc1ccc2c3c(c4cc(OC)c(OC)cc4c2c1)CN1CCC[C@H]1[C@@H]3O ?
Result: 1.22

Query: Quick check: TGI of COc1cc(-c2ccc[nH]2)[nH]c1/C=C1\N=C(C)C(C(=O)NC(C)C)=C1C ?
Result: 4.25

Query: Quick check: TGI of COc1cc(C(=O)/C=C/c2c(C)n([O-])c3ccc(Cl)cc3[n+]2=O)cc(OC)c1OC ?
Result: 12.2
